For each of the binders below, state its pEC50.
Target: T1, Cynomolgus SLC34A2 (Cynomolgus, UniProt A0A2K5UHY1 1-690)
T1 construct: whole, on cells; also called Cyno SLC34A2
T1 sequence: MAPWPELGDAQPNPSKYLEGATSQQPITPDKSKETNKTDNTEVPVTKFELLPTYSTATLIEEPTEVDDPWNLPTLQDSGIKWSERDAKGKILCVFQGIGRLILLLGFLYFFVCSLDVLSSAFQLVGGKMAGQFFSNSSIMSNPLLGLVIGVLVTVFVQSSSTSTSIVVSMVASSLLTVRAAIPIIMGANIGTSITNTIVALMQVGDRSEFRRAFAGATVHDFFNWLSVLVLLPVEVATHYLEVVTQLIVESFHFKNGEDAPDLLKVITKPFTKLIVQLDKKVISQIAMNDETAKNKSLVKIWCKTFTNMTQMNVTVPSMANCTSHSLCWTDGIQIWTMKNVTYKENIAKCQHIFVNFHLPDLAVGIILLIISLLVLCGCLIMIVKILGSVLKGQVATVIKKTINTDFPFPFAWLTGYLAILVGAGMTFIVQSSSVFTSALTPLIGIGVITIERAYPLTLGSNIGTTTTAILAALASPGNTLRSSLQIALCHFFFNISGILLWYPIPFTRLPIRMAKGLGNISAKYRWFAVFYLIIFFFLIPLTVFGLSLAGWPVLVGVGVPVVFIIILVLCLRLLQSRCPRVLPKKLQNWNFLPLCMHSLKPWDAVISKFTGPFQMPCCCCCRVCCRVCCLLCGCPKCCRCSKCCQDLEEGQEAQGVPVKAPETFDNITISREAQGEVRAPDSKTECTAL
Test: FACS, cells expressing Cynomolgus SLC34A2
The quantity pEC50 is defined as the negative base-10 logarithm of the molar concentration.

The binder listed as xi30H9B8F9 hIgG1 (antibody, V domains shown, chimeric, hIgG1) VH: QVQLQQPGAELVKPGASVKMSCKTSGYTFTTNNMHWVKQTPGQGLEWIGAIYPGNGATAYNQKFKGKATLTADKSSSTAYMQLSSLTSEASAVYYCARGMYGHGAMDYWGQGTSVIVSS VL: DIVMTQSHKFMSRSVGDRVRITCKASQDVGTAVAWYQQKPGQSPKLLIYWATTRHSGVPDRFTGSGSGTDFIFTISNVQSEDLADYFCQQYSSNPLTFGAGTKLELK has a reported pEC50 of 8.97

# pEC50 (binder: xi78D1B10 hIgG1 (antibody, V domains shown, chimeric, hIgG1) VH: QVQLQQPGADLVKPGASVKLSCKASGFTFTSYIIHWVKQTPGQGLEWIGAIYPGNGDTSYIQKFKGRATLTADKSSTTAYMQLGGLTSEDSAVYYCARGTYGSSAWFVYWGQGTLVTVSA VL: DIVLTQSPATLSVTPGDSVSLSCRASQSISNNLYWYQQKSHESPRLLIKYASQSISGIPSRFRGSGSGTDFTLSINSVETEDFGMYFCQQSNSWPLTFGAGTKLELK ) is 8.82

Lab note: measured pEC50 of xi62G10E4G8 hIgG1 (antibody, V domains shown, chimeric, hIgG1) VH: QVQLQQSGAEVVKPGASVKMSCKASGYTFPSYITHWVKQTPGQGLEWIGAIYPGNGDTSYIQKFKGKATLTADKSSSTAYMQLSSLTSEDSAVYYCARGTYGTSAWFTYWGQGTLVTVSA VL: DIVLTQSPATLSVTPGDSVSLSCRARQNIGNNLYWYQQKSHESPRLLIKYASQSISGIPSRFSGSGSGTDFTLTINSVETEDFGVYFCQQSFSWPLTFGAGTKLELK was 8.48

For record xi94E9B12 hIgG1 (antibody, V domains shown, chimeric, hIgG1) VH: QVQLQQPGAELVKPGASVKMSCKASGYTFTSYNMQWVKQTYGQGLEWIGAISPGSGETSYNQNFKVKATLTADKISSTAYMQLSSLTSEDSAVYYCARAARAEGWFAYWGQGTLVTVSA VL: DIVMTQSHKFMSTSVGDRVSITCKASQDVGHAVVWYQQKPGQFPKLLIYWASTRHAGVPDRFTGSGSGTDFTLTISNVQSEDLADYFCQQFRSIPLTFGSGTKLEIK the listed pEC50 is 8.60
